Target under test: BaF3-ETV6-NTRK2 (Homo sapiens, UniProt Q16620)
Construct: fused on or other part: P41212 (Transcription factor ETV6)
Sequence (Q16620 538-822 limits assumed): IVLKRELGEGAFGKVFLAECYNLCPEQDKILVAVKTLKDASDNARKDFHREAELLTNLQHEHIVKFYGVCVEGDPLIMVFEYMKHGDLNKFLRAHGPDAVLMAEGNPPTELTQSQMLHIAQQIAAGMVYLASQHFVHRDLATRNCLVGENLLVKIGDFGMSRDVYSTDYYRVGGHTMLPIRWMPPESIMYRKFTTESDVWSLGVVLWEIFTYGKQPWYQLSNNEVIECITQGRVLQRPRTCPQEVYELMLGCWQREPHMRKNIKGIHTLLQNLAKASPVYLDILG
Run description: Cell proliferation inhibition (CCK-8), BaF3-ETV6-NTRK2 stable strain
Test settings: BaF3-ETV6-NTRK2, 72 hours
Entries and their measured IC50 follow.
Property name: IC50 (µM)

{"columns": ["Molecule", "Target under test", "Quantity unit", "Bound type", "Observed value"],
 "data": [
  ["Fc1cc(F)cc(Cc2ccc3[nH]nc(/C=C/c4ccccc4F)c3c2)c1 [DYX-10]", "BaF3-ETV6-NTRK2 (Homo sapiens, UniProt Q16620)", "µM", "=", 0.777],
  ["COc1cccc(Cc2ccc3[nH]nc(C#Cc4ccccn4)c3c2)c1 [DYX-135Q]", "BaF3-ETV6-NTRK2 (Homo sapiens, UniProt Q16620)", "µM", ">", 10],
  ["CC(C)NC(=O)/C=C/c1n[nH]c2ccc(NCc3cc(F)cc(F)c3)cc12 [DYX-231]", "BaF3-ETV6-NTRK2 (Homo sapiens, UniProt Q16620)", "µM", "=", 0.78],
  ["CN(c1cc(F)cc(F)c1)c1ccc2[nH]nc(C#Cc3ccccn3)c2c1 [DYX-130]", "BaF3-ETV6-NTRK2 (Homo sapiens, UniProt Q16620)", "µM", "=", 9.84],
  ["O=S(=O)(Nc1ccc2[nH]nc(/C=C/c3cnn(C(F)F)c3)c2c1)c1cc(F)cc(F)c1 [CHW-11]", "BaF3-ETV6-NTRK2 (Homo sapiens, UniProt Q16620)", "µM", "=", 0.103],
  ["Fc1ccc(Cc2ccc3[nH]nc(C#Cc4ccccn4)c3c2)c(F)c1 [DYX-051]", "BaF3-ETV6-NTRK2 (Homo sapiens, UniProt Q16620)", "µM", ">", 10],
  ["CCNC(=O)/C=C/c1n[nH]c2ccc(NCc3cc(F)cc(F)c3)cc12 [DYX-236]", "BaF3-ETV6-NTRK2 (Homo sapiens, UniProt Q16620)", "µM", "=", 0.116]
]}

----------
Target under test: BaF3-ETV6-NTRK2 (Homo sapiens, UniProt Q16620)
Construct: fused on or other part: P41212 (Transcription factor ETV6)
Run description: Cell proliferation inhibition (CCK-8), BaF3-ETV6-NTRK2 stable strain
Test settings: BaF3-ETV6-NTRK2, 72 hours
A collection of molecules and their measured IC50

{"columns": ["Smiles entry", "Bound type", "IC50 [nM]"],
 "data": [
  ["Clc1cc(Cl)cc(Cc2ccc3[nH]nc(/C=C/c4ccccn4)c3c2)c1", ">", 10000],
  ["CN(Cc1ccc2[nH]nc(/C=C/c3ccccn3)c2c1)c1cc(F)cc(F)c1", "=", 316],
  ["CC(C)(C)NC(=O)/C=C/c1n[nH]c2ccc(NCc3cc(F)cc(F)c3)cc12", "=", 303],
  ["Fc1cc(F)cc(Oc2ccc3[nH]nc(/C=C/c4ccccn4)c3c2)c1", "=", 571],
  ["Fc1cc(F)cc(COc2ccc3[nH]nc(C#Cc4ccccn4)c3c2)c1", "=", 1610],
  ["Cc1ccccc1/C=C/c1n[nH]c2ccc(S(=O)(=O)c3cc(F)cc(F)c3)cc12", "=", 220],
  ["O=S(=O)(c1cc(F)cc(F)c1)c1ccc2[nH]nc(/C=C/c3ccncc3)c2c1", "=", 133],
  ["Cc1cc(C)cc(Cc2ccc3[nH]nc(/C=C/c4ccccn4)c3c2)c1", "=", 3020],
  ["O=S(=O)(Nc1ccc2[nH]nc(/C=C/c3cn[nH]c3)c2c1)c1cc(F)cc(F)c1", "=", 215],
  ["Fc1cc(Br)cc(CNc2ccc3[nH]nc(/C=C/c4ccccn4)c3c2)c1", "=", 510],
  ["C[C@@H](Nc1ccc2[nH]nc(/C=C/c3ccccc3)c2c1)c1cc(F)cc(F)c1", "=", 115],
  ["O=S(=O)(c1cc(F)cc(F)c1)c1ccc2[nH]nc(/C=C/c3ccccc3)c2c1", "=", 441],
  ["CC(C)OCCn1cc(/C=C/c2n[nH]c3ccc(NS(=O)(=O)c4cc(F)cc(F)c4)cc23)cn1", "=", 55.8],
  ["Fc1cc(F)cc(-c2ccc3[nH]nc(/C=C/c4ccccn4)c3c2)c1", ">", 10000],
  ["O=S(=O)(c1cc(F)cc(F)c1)c1ccc2[nH]nc(/C=C/c3ccccn3)c2c1", "=", 175],
  ["O=C(Nc1cc(F)cc(F)c1)c1ccc2[nH]nc(/C=C/c3ccccn3)c2c1", "=", 2730],
  ["Fc1cc(F)cc(OCc2ccc3[nH]nc(/C=C/c4ccccn4)c3c2)c1", "=", 2520],
  ["Fc1ccc(CNc2ccc3[nH]nc(/C=C/c4ccccn4)c3c2)cc1", "=", 2530],
  ["Fc1ccc(F)c(Cc2ccc3[nH]nc(C#Cc4ccccn4)c3c2)c1", "=", 1990],
  ["CN(c1cc(F)cc(F)c1)c1ccc2[nH]nc(/C=C/c3ccccn3)c2c1", "=", 1790],
  ["Fc1cc(F)cc(Cc2ccc3[nH]nc(/C=C/c4ccncc4)c3c2)c1", "=", 170],
  ["Fc1cc(F)cc(Cc2ccc3[nH]nc(/C=C/c4ccccn4)c3c2)c1", "=", 165],
  ["Fc1cc(CNc2ccc3[nH]nc(/C=C/c4ccccn4)c3c2)cc(C(F)(F)F)c1", "=", 2520],
  ["Fc1cc(F)cc(COc2ccc3[nH]nc(/C=C/c4ccccn4)c3c2)c1", "=", 178],
  ["Fc1cc(F)cc(Cc2ccc3[nH]nc(/C=C/c4cnccn4)c3c2)c1", "=", 678],
  ["Fc1cc(F)cc(Nc2ccc3[nH]nc(/C=C/c4ccccn4)c3c2)c1", "=", 2620]
]}
